- Test system: SF-295
- Experiment Summary: NCI tumour cell line growth inhibition, 48 h
Active and inactive are the calls of the source. Cut-off read from the data, not from the text of the source: active = GI50 up to about 1.1 µM and inactive = higher.
Write down one outcome, taken from active, inactive

- Compound: "COc1ccc(-c2cc(O)c3cc4c(cc3n2)OCO4)c(OC)c1OC"
  Discrete Label: "inactive"
- Compound: "CC(C)C1N(C)c2ccc(Cl)cc2[C@H]2c3ccccc3CCN12 (stereo partly drawn)"
  Discrete Label: "inactive"
- Compound: "N=C(N)/N=C(\\N)Nc1cnccn1"
  Discrete Label: "inactive"

Turning now to a further record.
Hi, sorry to bother you, what did the test record for COc1ccc(CNC(=O)NCn2cc(-c3ccccc3)nn2)cc1 ? inactive
